Reference source for all entries: patent US9637520B2

Entries and their EC50
- Measurement Target: CXCR7 (Homo sapiens, UniProt P25106)
- Construct: host or cells: CHO (PathHunter CHO-CXCR7 β-arrestin cells)
- Sequence (P25106 whole entry): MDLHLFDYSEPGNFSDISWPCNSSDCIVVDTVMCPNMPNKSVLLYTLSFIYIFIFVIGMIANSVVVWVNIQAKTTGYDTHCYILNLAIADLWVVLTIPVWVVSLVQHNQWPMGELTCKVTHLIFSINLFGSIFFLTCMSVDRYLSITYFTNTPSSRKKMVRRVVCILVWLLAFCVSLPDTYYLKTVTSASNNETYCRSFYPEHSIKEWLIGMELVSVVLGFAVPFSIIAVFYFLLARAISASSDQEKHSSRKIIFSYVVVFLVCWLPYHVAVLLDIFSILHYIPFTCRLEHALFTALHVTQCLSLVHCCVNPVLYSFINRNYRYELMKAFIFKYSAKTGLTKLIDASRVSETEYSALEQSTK
- Measurement Description: CXCR7 β-arrestin recruitment assay (PathHunter CHO-CXCR7, DiscoverX), agonistic assay
- Assay type: cell-based
- Test Parameters: agonistic assay; CHO CXCR7 β-arrestin cells; 90 min at 37° C.; chemiluminescence; read-out: β-Arrestin EC50
Non-standard residues stand in square brackets, D forms with d. Residues, ends and D or L forms follow the SMILES beside them. *: point of attachment. dPro(cis-4-NH2) = N[C@H]1CN[C@@H](C(=O)O)C1; cisHyp = O=C(O)[C@@H]1C[C@H](O)CN1; 3Pal = N[C@@H](Cc1cccnc1)C(=O)O; Tic = O=C(O)[C@@H]1Cc2ccccc2CN1; Dab = NCC[C@H](N)C(=O)O; Bn = c1ccc(C*)cc1

Some compounds with recorded EC50:
Compound	EC50
N=C(N)NCCC[C@@H]1NC(=O)[C@H](Cc2c[nH]c3ccccc23)NC(=O)[C@@H](Cc2ccccc2)NC(=O)[C@H](Cc2cccnc2)NC(=O)[C@@H]2Cc3ccccc3CN2C(=O)[C@H]2C[C@@H](N)CN2C1=O [compound 37] (cyclo([3Pal][dF]WR[dPro(cis-4-NH2)][Tic]))	5.1 nM
CC[C@H](C)[C@@H]1NC(=O)[C@H]([C@@H](C)O)NC(=O)[C@H]2CCCN2C(=O)[C@H](Cc2c[nH]c3ccccc23)NC(=O)[C@H](CCN)NC(=O)[C@@H](CCCNC(=N)N)NC1=O [Ex. 4, cyclo(-Ile-^DArg-Dab-Trp-^DPro-Thr-)] (cyclo([Dab]W[dP]TI[dR]))	87 nM
CC[C@H](C)[C@@H]1NC(=O)[C@H]([C@@H](C)O)NC(=O)[C@H]2CCCN2C(=O)[C@H](Cc2ccccc2)NC(=O)[C@H](CCCNC(=N)N)NC(=O)[C@@H](CCCNC(=N)N)NC1=O [Ex. 6, cyclo(-Ile-^DArg-Arg-Phe-^DPro-Thr-)] (cyclo(F[dP]TI[dR]R))	46.4 nM

The record that follows has no EC50 shown yet.
[ask] Please give the measured EC50 for this compound: N=C(N)NCCC[C@@H]1NC(=O)[C@@H]2C[C@H](OCc3ccccc3)CN2C(=O)[C@H]2CCCN2C(=O)[C@H](CCCNC(=N)N)NC(=O)[C@H](Cc2c[nH]c3ccccc23)NC(=O)[C@@H](Cc2ccccc2)NC1=O [Ex. 48] (cyclo(R[dF]WR[dP][cisHyp](Bn)))
[reply] 76.9 nM
